# Protocol Text: Food-effect two-period crossover trial: plasma pharmacokinetics after a single 200 mg oral dose of Ginsenoside CK Tablets
# Type: in vivo, human
# Test Conditions: female, human, plasma, po, 200 mg; single oral 200 mg CK; HF
Outcome Measure: AUC(0-inf) (ng·h/mL)
The reply should contain only the number, in ng·h/mL.

>>> reported_result("CC(C)=CCCC(C)(OC1OC(CO)C(O)C(O)C1O)C1CCC2(C)C1C(O)CC1C3(C)CCC(O)C(C)(C)C3CCC12C (centres unmarked) [CK]")
15900

Consider CC(C)=CCC[C@](C)(O)C1CC[C@]2(C)C1[C@H](O)CC1[C@@]3(C)CC[C@H](O)C(C)(C)C3CC[C@]12C (stereo partly drawn) [20(S)-PPD, 20(S)-protopanaxadiol] . Its measured AUC(0-inf) is 154
